target: human adenosine A2A receptor (Homo sapiens); construct: expressed in transfected cells; host or cells: CHO-K1 cells with cAMP inducible beta-galactosidase reporter gene; assay: Adenosine A2A Receptor Functional Assay (A2AGAL2); format: cell-based; conditions: selectivity ratio of A1Gal2 value to A2AGal2 value
Sequence (P29274 whole entry): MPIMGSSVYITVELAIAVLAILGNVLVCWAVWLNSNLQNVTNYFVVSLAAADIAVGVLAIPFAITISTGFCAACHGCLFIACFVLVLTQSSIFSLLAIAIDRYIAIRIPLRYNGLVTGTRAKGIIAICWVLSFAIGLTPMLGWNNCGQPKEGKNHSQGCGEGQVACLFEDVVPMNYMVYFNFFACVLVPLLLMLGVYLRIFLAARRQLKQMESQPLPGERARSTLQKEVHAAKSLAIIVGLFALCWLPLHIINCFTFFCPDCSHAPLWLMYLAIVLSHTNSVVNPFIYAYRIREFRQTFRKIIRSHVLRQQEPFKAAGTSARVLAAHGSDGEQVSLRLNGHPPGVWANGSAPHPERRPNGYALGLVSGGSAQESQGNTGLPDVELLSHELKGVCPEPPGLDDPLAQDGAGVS
value type: A1/A2A
Just the number, please, no unit attached.

- compound: "Cc1nc(-c2ccccc2)sc1-c1cccc2c1-c1nc(N)nc(-c3ccccc3)c1C2=O [Example 1]"
  target system: "human adenosine A2A receptor (Homo sapiens)"
  A1/A2A: 1056.34
- compound: "Nc1nc(-c2ccc(F)cc2)c2c(n1)-c1c(cccc1-c1ccc(N3CCN(CC4CC4)CC3)nc1)C2=O [Example 9]"
  target system: "human adenosine A2A receptor (Homo sapiens)"
  A1/A2A: 73.4177
- compound: "Cc1cc(-c2cccc3c2-c2nc(N)nc(-c4ccccc4)c2C3=O)cnc1N1CCN(C)CC1 [Example 10]"
  target system: "human adenosine A2A receptor (Homo sapiens)"
  A1/A2A: 63.3333

Shifting focus to the compound that follows.
With human adenosine A2A receptor (Homo sapiens) as the test system, Nc1nc(-c2ccccc2)c2c(n1)-c1c(cccc1-c1ccc(N3CCN(Cc4ccccc4)CC3)nc1)C2=O [Example 8] showed A1/A2A of 100

* * *

target: human adenosine A1 receptor (Homo sapiens); assay: Adenosine A1 Receptor Functional Assay (A1GAL2); settings: CHO-K1 cells overexpressing human A1 receptor, cAMP inducible beta-galactosidase reporter; antagonist mode vs 4 nM r-PIA/1 uM Forskolin challenge
Sequence (P30542 whole entry): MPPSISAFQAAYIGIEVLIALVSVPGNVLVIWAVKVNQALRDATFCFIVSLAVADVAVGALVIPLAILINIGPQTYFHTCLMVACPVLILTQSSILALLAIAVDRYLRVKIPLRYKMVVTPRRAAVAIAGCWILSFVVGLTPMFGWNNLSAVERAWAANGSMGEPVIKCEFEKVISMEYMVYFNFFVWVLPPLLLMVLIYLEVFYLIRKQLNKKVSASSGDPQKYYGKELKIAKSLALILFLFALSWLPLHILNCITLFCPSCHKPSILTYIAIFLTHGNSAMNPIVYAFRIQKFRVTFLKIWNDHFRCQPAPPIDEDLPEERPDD
value type: IC50 (nM)
Output spec: scalar in nM, unitless text.

// worked examples, IC50 included
- smiles: "Cc1nc(-c2ccccc2)sc1-c1cccc2c1-c1nc(N)nc(-c3ccccc3)c1C2=O"
  target system: "human adenosine A1 receptor (Homo sapiens)"
  IC50 / nM: 7500
- smiles: "Cc1cc(-c2cccc3c2-c2nc(N)nc(-c4ccccc4)c2C3=O)cnc1N1CCN(C)CC1"
  target system: "human adenosine A1 receptor (Homo sapiens)"
  IC50 / nM: 190
- smiles: "Nc1nc(-c2ccc(F)cc2)c2c(n1)-c1c(cccc1-c1ccc(N3CCN(CC4CC4)CC3)nc1)C2=O"
  target system: "human adenosine A1 receptor (Homo sapiens)"
  IC50 / nM: 580

Shifting focus to the molecule that follows.
For this molecule ( "CC(C)CCN1CCN(c2ccc(-c3cccc4c3-c3nc(N)nc(-c5ccc(F)cc5)c3C4=O)cn2)CC1" ), measured IC50 is 1000
